- tested-on: BCL-XL (Homo sapiens)
- Construct: endogenous in cells; host or cells: MOLT-4
- Sequence (Q07817 whole entry): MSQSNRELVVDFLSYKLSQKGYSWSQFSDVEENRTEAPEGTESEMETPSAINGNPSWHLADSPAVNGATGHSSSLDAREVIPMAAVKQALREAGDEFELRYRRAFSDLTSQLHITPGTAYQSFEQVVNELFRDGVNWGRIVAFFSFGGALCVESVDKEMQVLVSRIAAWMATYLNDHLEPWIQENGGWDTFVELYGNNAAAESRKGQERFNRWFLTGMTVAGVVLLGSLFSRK
- protocol: Bcl-xL ELISA degradation in MOLT-4 cells, 6 h
- Type: cell-based
- particulars: read-out: Bcl-xL ELISA in MOLT-4 degradation 6 h: Mean external-Abs DC50
Consider the following molecules; for each one, report its DC50.

Q. Tell me reported DC50 for Cc1ncsc1-c1ccc([C@H](C)NC(=O)[C@@H]2C[C@@H](O)CN2C(=O)[C@@H](NC(=O)N2CC(N3CCC(S(=O)(=O)NC(=O)c4nc(N5CCc6cccc(C(=O)Nc7nc8ccccc8s7)c6C5)ccc4-c4cnn(CC5CCCCC5)c4C)CC3)C2)C(C)(C)C)cc1 [I-212] , tested with BCL-XL (Homo sapiens).
A. 100 to 500 nM

Q. Tell me reported DC50 for C#Cc1ccc([C@H](CO)NC(=O)[C@@H]2C[C@@H](O)CN2C(=O)[C@@H](NC(=O)CCNCCS(=O)(=O)NC(=O)c2nc(N3CCc4cccc(C(=O)Nc5nc6cccnc6s5)c4C3)ccc2-c2cnn(CC3CCCCC3)c2C)C(C)(C)C)cc1 [I-378] , tested with BCL-XL (Homo sapiens).
A. 10 to 100 nM

Q. Tell me reported DC50 for Cc1ncsc1-c1ccc([C@H](C)NC(=O)[C@@H]2C[C@@H](O)CN2C(=O)[C@@H](c2cc(OC3CCN([C@H]4CC[C@H](NC(=O)c5nc(N6CCc7cccc(C(=O)Nc8nc9ccccc9s8)c7C6)ccc5-c5cnn(CC6CCCCC6)c5C)CC4)CC3)no2)C(C)C)cc1 [I-313] , tested with BCL-XL (Homo sapiens).
A. > 1000 nM

Q. Tell me reported DC50 for Cc1ncsc1-c1ccc([C@H](C)NC(=O)[C@@H]2C[C@@H](O)CN2C(=O)[C@@H](NC(=O)C2CCN(c3ccc(S(=O)(=O)NC(=O)c4nc(N5CCc6cccc(C(=O)Nc7nc8ccccc8s7)c6C5)ccc4-c4cnn(CC5CCCC5)c4C)cc3)CC2)C(C)(C)C)cc1 [I-348] , tested with BCL-XL (Homo sapiens).
A. < 10 nM

Q. Tell me reported DC50 for Cc1c(-c2ccc(N3CCc4cccc(C(=O)Nc5nc6cccnc6s5)c4C3)nc2C(=O)NS(=O)(=O)CCCCCC(=O)N[C@H](C(=O)N2C[C@H](O)C[C@H]2C(=O)N[C@H](C)c2ccc(C#N)cc2O)C(C)(C)C)cnn1CC1CCCCC1 (single isomer, unassigned) [I-486] , tested with BCL-XL (Homo sapiens).
A. 10 to 100 nM

Q. Tell me reported DC50 for Cc1ncsc1-c1ccc(CNC(=O)[C@@H]2C[C@@H](O)CN2C(=O)[C@@H](NC(=O)C2(F)CC2)C(C)(C)C)c(OCCCC(=O)N2CCN(CC#Cc3ccc(OCCCc4sc(N5CCc6cccc(C(=O)Nc7nc8ccccc8s7)c6C5)nc4C(=O)O)c(F)c3)CC2)c1 [I-223] , tested with BCL-XL (Homo sapiens).
A. 10 to 100 nM

Q. Tell me reported DC50 for C#Cc1ccc([C@H](C)NC(=O)[C@@H]2C[C@@H](O)CN2C(=O)[C@@H](NC(=O)CCCCCS(=O)(=O)NC(=O)c2nc(N(C)c3cc(C)c(Nc4nc5ccccc5s4)nn3)ccc2-c2cnn(CC(C)(C)C)c2C)C(C)(C)C)cc1 [I-473] , tested with BCL-XL (Homo sapiens).
A. 500 to 1000 nM

Q. Tell me reported DC50 for C#Cc1ccc(CNC(=O)[C@@H]2C[C@@H](O)CN2C(=O)[C@@H](NC(=O)CCN(C)CCS(=O)(=O)NC(=O)c2nc(N3CCc4cccc(C(=O)Nc5nc6cccnc6s5)c4C3)ccc2-c2cnn(CC3CCCCC3)c2C)C(C)(C)C)cc1 [I-413] , tested with BCL-XL (Homo sapiens).
A. 10 to 100 nM

Origin of measurements: patent US20250197387A1
